Cited source for all entries: patent US11420973B2

# Assayed system: UniProt:Q9NR97
# Sequence (Q9NR97 27-1041): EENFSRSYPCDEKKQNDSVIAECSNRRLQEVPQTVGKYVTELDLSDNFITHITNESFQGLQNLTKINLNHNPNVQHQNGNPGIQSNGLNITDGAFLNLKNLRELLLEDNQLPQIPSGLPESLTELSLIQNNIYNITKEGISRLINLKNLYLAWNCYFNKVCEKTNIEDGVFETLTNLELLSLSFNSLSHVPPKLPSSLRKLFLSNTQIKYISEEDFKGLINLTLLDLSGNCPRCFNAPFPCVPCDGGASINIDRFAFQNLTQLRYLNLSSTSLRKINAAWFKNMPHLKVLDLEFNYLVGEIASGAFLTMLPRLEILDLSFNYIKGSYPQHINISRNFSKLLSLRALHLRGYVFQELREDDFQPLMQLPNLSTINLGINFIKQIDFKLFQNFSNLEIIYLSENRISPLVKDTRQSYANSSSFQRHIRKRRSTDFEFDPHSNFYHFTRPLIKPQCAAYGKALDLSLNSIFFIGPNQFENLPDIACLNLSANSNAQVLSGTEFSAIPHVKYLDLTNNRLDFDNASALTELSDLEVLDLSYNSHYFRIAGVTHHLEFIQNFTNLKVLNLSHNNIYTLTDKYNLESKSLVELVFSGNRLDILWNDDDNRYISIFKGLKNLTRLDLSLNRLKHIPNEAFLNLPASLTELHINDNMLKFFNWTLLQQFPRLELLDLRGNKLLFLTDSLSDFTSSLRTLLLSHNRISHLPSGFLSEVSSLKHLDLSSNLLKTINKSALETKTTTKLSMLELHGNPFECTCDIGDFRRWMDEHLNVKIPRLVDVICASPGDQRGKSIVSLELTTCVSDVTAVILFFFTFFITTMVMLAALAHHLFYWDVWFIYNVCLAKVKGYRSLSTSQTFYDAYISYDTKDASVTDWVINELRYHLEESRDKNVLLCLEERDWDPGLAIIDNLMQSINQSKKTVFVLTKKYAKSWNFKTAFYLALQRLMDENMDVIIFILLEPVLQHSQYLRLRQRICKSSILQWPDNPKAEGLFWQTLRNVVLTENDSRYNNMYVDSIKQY
# Assay details: TLR8 inhibition reporter assay (HEK-Blue SEAP reporter, R848 stimulation);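 also: SEAP driven by IFN-β minimal promoter with NF-κB and AP-1 sites, 22 h incubation, compounds 0.05 nM–50 µM, inhibition scaled between agonist plus DMSO and reference inhibitor wells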
# Condition info: read-out: TLR8 IC50; HEK-Blue cells overexpressing human TLR8, R848 15.9 μM, SEAP reporter
Parameter: pIC50
Value format note: pIC50 is -log10 of concentration (mol/L); just state the number.

Worked examples, 10 compounds total:
CCc1c(-c2ccc(OC)c(OC)c2)[nH]c2ccc(C(=O)N3CCCN(c4ccccn4)CC3)cc12 = 5.79
Cc1c(-c2[nH]c3ccc(C(=O)N4CCN(C)CC4)cc3c2C(C)C)cn(C)c(=O)c1Cl = 8.68
COc1ccc(-c2[nH]c3ccc(C(=O)N4CC5CNCC5C4)cc3c2C(C)C)cc1OC (centres unmarked) = 7.31
COc1ccc(-c2[nH]c3ccc(C(=O)N4CC5CN(CC(=O)N(C)C)CC5C4)cc3c2CC(F)(F)F)cc1OC (centres unmarked) = 6.46
CCc1c(-c2ccc(OC)c(OC)c2)[nH]c2ccc(C(=O)N3CCN(CCN4CCOCC4)CC3)cc12 = 7.82
Cc1cc(-c2[nH]c3ccc(C(C)(C)C(=O)NCCC(C)(C)O)cc3c2C(C)C)ccn1 = 6.26
COc1ccc(-c2[nH]c3ccc(C(=O)N4CC5CN(C(=O)CN(C)C)CC5C4)cc3c2C(C)C)cc1OC (centres unmarked) = 7.27
CCc1c(-c2ccc(OC)c(OC)c2)[nH]c2ccc(C(=O)N3CCN(c4cnccn4)CC3)cc12 = 6.96
Cc1cc(-c2[nH]c3ccc(C(C)C(=O)NCCC(C)(C)O)cc3c2C(C)C)ccn1 (centres unmarked) = 6.02
CCc1c(-c2ccc(OC)c(OC)c2)[nH]c2ccc(C(=O)N3CCC[C@H]3CO)cc12 = 6.66

Next compound, pIC50 to be filled in.
Query: I would be grateful if you could share the reported pIC50 for CCc1c(-c2ccc(OC)c(OC)c2)[nH]c2ccc(C(=O)N3CCC(N4CCN(C)CC4)CC3)cc12 .
Reply: 7.85
